- System: Myzus persicae (Green Peach Aphid)
- assayComment: Activity against Myzus persicae (green peach aphid), systemic activity, pea seedling roots in test solution
- Assay type: in vivo
- runConditions: 144 h, test rate 24 ppm, aphid population of mixed ages, 6 days after placing seedlings into test solutions
- Procedure: Example B5: Activity Against Myzus persicae (Green Peach Aphid) Systemic Activity Roots of pea seedlings infested with an aphid population of mixed ages were placed directly into aqueous test solutions prepared from 10′000 DMSO stock solutions. The samples were assessed for mortality 6 days after placing seedlings into test solutions.
propertyMeasured: mortality at 24 ppm

>>> reportedresult("CCS(=O)(=O)c1cc(C2CC2)cnc1-c1coc2cc(C(F)(F)F)ccc2c1=O")
"≥ 80%"
>>> reportedresult("CCS(=O)(=O)c1cc(C2(C#N)CC2)cnc1-c1coc2cc(OC(F)F)ccc2c1=O")
"≥ 80%"
>>> reportedresult("CCS(=O)(=O)c1cc(C2(C#N)CC2)cnc1-c1coc2cc(C(F)(F)F)ccc2c1=O")
"≥ 80%"
>>> reportedresult("CCS(=O)(=O)c1cc(C2(C#N)CC2)cnc1-c1c(C)oc2cc(C(F)(F)F)ccc2c1=O")
"≥ 80%"
>>> reportedresult("CCS(=O)(=O)c1cccnc1-c1coc2cc(C(F)(F)F)ccc2c1=O [P2]")
"≥ 80%"
>>> reportedresult("CCS(=O)(=O)c1cc(C2(C#N)CC2)cnc1-c1cn(C)c2cc(C(F)(F)F)ccc2c1=O")
"≥ 80%"
>>> reportedresult("CCS(=O)(=O)c1cc(C(C)(C)C#N)cnc1-c1coc2cc(C(F)(F)F)ccc2c1=O")
"≥ 80%"
